System: Kallikrein-5 (Homo sapiens) (UniProt Q9Y337)
Sequence (Q9Y337 67-293 limits assumed): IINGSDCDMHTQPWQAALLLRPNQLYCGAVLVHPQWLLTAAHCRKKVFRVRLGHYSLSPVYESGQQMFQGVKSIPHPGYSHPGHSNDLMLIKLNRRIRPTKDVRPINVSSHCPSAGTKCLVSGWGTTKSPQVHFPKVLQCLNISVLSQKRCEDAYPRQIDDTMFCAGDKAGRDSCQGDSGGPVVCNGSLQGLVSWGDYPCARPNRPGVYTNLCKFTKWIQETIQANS
Measurement Description: kallikrein 5 (hK5) inhibition IC50 – biochemical, 1536-well, dose response (AID 1431)
Protocol Conditions: recombinant KLK5 enzyme activity, fluorogenic substrate
The source made the active and inactive calls. No rule for the calls is given here.
Classes used: active, inactive

{"Molecule": "CC1CC(C)(C)n2c(O)c(N=NC(N)=S)c3cccc1c32 (stereo not drawn)", "System": "Kallikrein-5 (Homo sapiens) (UniProt Q9Y337)", "Category Label": "inactive"}
{"Molecule": "CC(C)(CO)N=Cc1c(O)[nH]c2ccccc12", "System": "Kallikrein-5 (Homo sapiens) (UniProt Q9Y337)", "Category Label": "inactive"}
{"Molecule": "CC1=C(C(N)=O)C(c2ccccn2)n2nc(-c3ccccc3Cl)nc2N1 (stereo not drawn)", "System": "Kallikrein-5 (Homo sapiens) (UniProt Q9Y337)", "Category Label": "inactive"}
{"Molecule": "Cc1c(-c2cccs2)[n+](=O)c2c(n1[O-])CCC2", "System": "Kallikrein-5 (Homo sapiens) (UniProt Q9Y337)", "Category Label": "inactive"}
{"Molecule": "CCOc1cc(/C=N/Nc2nc(Nc3ccccc3)nc(N3CCCCC3)n2)ccc1OCC(=O)O", "System": "Kallikrein-5 (Homo sapiens) (UniProt Q9Y337)", "Category Label": "inactive"}
{"Molecule": "N#CC1=C(N)NC(SCc2ccccc2)=C(C#N)C12CCCC2", "System": "Kallikrein-5 (Homo sapiens) (UniProt Q9Y337)", "Category Label": "inactive"}
{"Molecule": "Cc1ccc(Cn2c(O)c(N=NC(=S)Nc3ccccc3F)c3cc(S(=O)(=O)N4CCOCC4)ccc32)cc1", "System": "Kallikrein-5 (Homo sapiens) (UniProt Q9Y337)", "Category Label": "inactive"}
{"Molecule": "O=C(Nc1ccccc1)c1cccc(N2C(=O)CCC2=O)c1", "System": "Kallikrein-5 (Homo sapiens) (UniProt Q9Y337)", "Category Label": "inactive"}
{"Molecule": "Cc1cc(C)n(CC2CC(=O)N(c3ccc(Cl)c(Cl)c3)C2=O)n1 (stereo not drawn)", "System": "Kallikrein-5 (Homo sapiens) (UniProt Q9Y337)", "Category Label": "inactive"}
{"Molecule": "COC(/C=C/Nc1ccc(Br)cc1)=C(C#N)C#N", "System": "Kallikrein-5 (Homo sapiens) (UniProt Q9Y337)", "Category Label": "inactive"}
{"Molecule": "Cc1cc(/C(O)=C2\\C(=O)C(=O)N(CCN(C)C)C2c2ccncc2)ccc1OCc1ccccc1 (stereo not drawn)", "System": "Kallikrein-5 (Homo sapiens) (UniProt Q9Y337)", "Category Label": "inactive"}
{"Molecule": "CCOC(=O)C1(C)C=C(Nc2cccc(OC)c2)C(=O)N1c1ccccc1 (stereo not drawn)", "System": "Kallikrein-5 (Homo sapiens) (UniProt Q9Y337)", "Category Label": "inactive"}
{"Molecule": "COc1ccc(OC)c(/C=N/Nc2cc(C)nc(N3CCOCC3)n2)c1", "System": "Kallikrein-5 (Homo sapiens) (UniProt Q9Y337)", "Category Label": "inactive"}
{"Molecule": "CCOC(=O)c1ccc(N=C(c2ccccc2)c2c(O)n(C)c(=O)n(C)c2=O)cc1", "System": "Kallikrein-5 (Homo sapiens) (UniProt Q9Y337)", "Category Label": "inactive"}
{"Molecule": "COc1ccc(-c2[nH]nc3c2C(c2ccsc2)C(C#N)=C(N)O3)cc1 (stereo not drawn)", "System": "Kallikrein-5 (Homo sapiens) (UniProt Q9Y337)", "Category Label": "inactive"}
{"Molecule": "Cc1cc2c(C)nc(N/N=C/c3ccc([N+](=O)[O-])cc3)nc2o1", "System": "Kallikrein-5 (Homo sapiens) (UniProt Q9Y337)", "Category Label": "inactive"}
{"Molecule": "O=C1CC(Sc2ccc(Cl)cc2)C(=O)N1c1ccc2c(c1)OCCO2 (stereo not drawn)", "System": "Kallikrein-5 (Homo sapiens) (UniProt Q9Y337)", "Category Label": "inactive"}
{"Molecule": "COc1cccc(N2C(=O)CC(NNc3nc4ccccc4s3)C2=O)c1 (stereo not drawn)", "System": "Kallikrein-5 (Homo sapiens) (UniProt Q9Y337)", "Category Label": "inactive"}
{"Molecule": "CC1(C)CC(=O)CC(=NCC(=O)O)C1", "System": "Kallikrein-5 (Homo sapiens) (UniProt Q9Y337)", "Category Label": "inactive"}
{"Molecule": "COc1ccc2cc(C3C(C#N)=C(N)OC(C)=C3C(C)=O)c(Cl)nc2c1 (stereo not drawn)", "System": "Kallikrein-5 (Homo sapiens) (UniProt Q9Y337)", "Category Label": "inactive"}
{"Molecule": "Cc1ccc(-c2[nH]nc3c2C(c2ccoc2)C(C#N)=C(N)O3)cc1C (stereo not drawn)", "System": "Kallikrein-5 (Homo sapiens) (UniProt Q9Y337)", "Category Label": "inactive"}
{"Molecule": "O=C(N/N=C/c1cc([N+](=O)[O-])ccc1O)c1cccc2cc[nH]c12", "System": "Kallikrein-5 (Homo sapiens) (UniProt Q9Y337)", "Category Label": "inactive"}
{"Molecule": "O=C1CC(SCc2nc3ccccc3[nH]2)C(=O)N1c1ccc(F)cc1 (stereo not drawn)", "System": "Kallikrein-5 (Homo sapiens) (UniProt Q9Y337)", "Category Label": "inactive"}
{"Molecule": "COc1ccc(N2C(=O)CC(Nc3cccc([N+](=O)[O-])c3)C2=O)cc1 (stereo not drawn)", "System": "Kallikrein-5 (Homo sapiens) (UniProt Q9Y337)", "Category Label": "inactive"}
{"Molecule": "COC(=O)c1[nH]c(C)c(/C(O)=C2\\C(=O)C(=O)N(CCN(C)C)C2c2cccc(OC)c2OC)c1C (stereo not drawn)", "System": "Kallikrein-5 (Homo sapiens) (UniProt Q9Y337)", "Category Label": "inactive"}
{"Molecule": "Cc1ccccc1NC(=O)Cn1c(O)c(N=NC(=O)c2ccccc2O)c2ccccc21", "System": "Kallikrein-5 (Homo sapiens) (UniProt Q9Y337)", "Category Label": "inactive"}
{"Molecule": "CCOC(=O)C1CCCN(C2CC(=O)N(c3ccc(C)cc3)C2=O)C1 (stereo not drawn)", "System": "Kallikrein-5 (Homo sapiens) (UniProt Q9Y337)", "Category Label": "inactive"}
{"Molecule": "COc1ccc(C2C(C(C)=O)=C(O)C(=O)N2c2nccs2)cc1OC (stereo not drawn)", "System": "Kallikrein-5 (Homo sapiens) (UniProt Q9Y337)", "Category Label": "active"}
{"Molecule": "N#C/C(=N\\O)c1nc2ccccc2s1", "System": "Kallikrein-5 (Homo sapiens) (UniProt Q9Y337)", "Category Label": "inactive"}
{"Molecule": "CCOC(=O)C1=C(N)OC2=C(C(=O)CCC2)C12C(=O)N(CC(N)=O)c1ccccc12 (stereo not drawn)", "System": "Kallikrein-5 (Homo sapiens) (UniProt Q9Y337)", "Category Label": "inactive"}
{"Molecule": "COc1ccc(N2C(N)=C(C#N)C(c3cccnc3)C3=C2CC(C)(C)CC3=O)cc1 (stereo not drawn)", "System": "Kallikrein-5 (Homo sapiens) (UniProt Q9Y337)", "Category Label": "inactive"}
{"Molecule": "CCC/S(C)=N/S(=O)(=O)c1ccc(C)cc1 (stereo not drawn)", "System": "Kallikrein-5 (Homo sapiens) (UniProt Q9Y337)", "Category Label": "inactive"}
{"Molecule": "O=C1CC(Nc2ccccc2)C(=O)N1c1ccc(N2CCOCC2)cc1 (stereo not drawn)", "System": "Kallikrein-5 (Homo sapiens) (UniProt Q9Y337)", "Category Label": "inactive"}
{"Molecule": "O=C(N/N=C\\c1cccc([N+](=O)[O-])c1O)C1COc2ccccc2O1 (stereo not drawn)", "System": "Kallikrein-5 (Homo sapiens) (UniProt Q9Y337)", "Category Label": "inactive"}
{"Molecule": "COc1ccc(C2C(C(=O)Nc3ccccc3OC)=C(C)Nc3ncnn32)cc1 (stereo not drawn)", "System": "Kallikrein-5 (Homo sapiens) (UniProt Q9Y337)", "Category Label": "inactive"}
{"Molecule": "Cc1cccc(NC2SC(=O)N(c3ccccc3)C2=O)c1 (stereo not drawn)", "System": "Kallikrein-5 (Homo sapiens) (UniProt Q9Y337)", "Category Label": "inactive"}
{"Molecule": "O=c1c(/C=N/O)c(Nc2ccccc2)nc2ccccn12", "System": "Kallikrein-5 (Homo sapiens) (UniProt Q9Y337)", "Category Label": "inactive"}
{"Molecule": "N#Cc1c(N)nc2c3c(sc(=N)c2c1N)NC(=O)CC3c1c(F)cccc1Cl (stereo not drawn)", "System": "Kallikrein-5 (Homo sapiens) (UniProt Q9Y337)", "Category Label": "inactive"}
{"Molecule": "Cc1cc(N/N=C/c2ccc(O)cc2)nc(NS(=O)(=O)c2ccccc2)n1", "System": "Kallikrein-5 (Homo sapiens) (UniProt Q9Y337)", "Category Label": "inactive"}
{"Molecule": "COc1ccc(Oc2ccccc2/C=N/O)cc1", "System": "Kallikrein-5 (Homo sapiens) (UniProt Q9Y337)", "Category Label": "inactive"}
{"Molecule": "COc1ccc(CN2C(=O)c3cccnc3C2Nc2cc(Cl)ccc2OC)cc1 (stereo not drawn)", "System": "Kallikrein-5 (Homo sapiens) (UniProt Q9Y337)", "Category Label": "active"}
{"Molecule": "Oc1cccc(NC(=S)N=Nc2c(O)[nH]c3ccccc23)c1", "System": "Kallikrein-5 (Homo sapiens) (UniProt Q9Y337)", "Category Label": "inactive"}
{"Molecule": "CC(=O)c1ccc(N2C(=O)C3C(C2=O)C(C(=O)c2ccc(Cl)cc2)N2CCCC32)cc1 (stereo not drawn)", "System": "Kallikrein-5 (Homo sapiens) (UniProt Q9Y337)", "Category Label": "inactive"}
